Molecular target: hERG (Homo sapiens)
Experiment: cell-based
Conditions: (-LOG10(IC50), µM)
Structures can show the parent of a compound that is named as a salt.
Lab note: anything with IC50 below 20 µM is marked rule met; values at 20 µM or higher are marked rule not met.

| compound | label |
| --- | --- |
| CCN(CC)CCSC(=O)C(c1ccccc1)c1ccccc1 [Thiphenamil] | rule met |
| O=C1CCCCCCCCCCOCCCCO1 [12-Oxahexadecanolide] | rule not met |
| CCN(CC)CCOC(=O)C(c1ccccc1)C1CCCCC1 (centres unmarked) [Drofenine hydrochloride] | rule met |

Dear reviewer, please state whether CCOC(=O)c1cn2nc(OP(=S)(OCC)OCC)cc2nc1C [Pyrazophos] has IC50 strictly beneath 20 µM.
rule not met

* * *

Measured IC50 accompanies every entry in the list below.
Target: hERG (Homo sapiens, UniProt Q12809)
Sequence (Q12809 whole entry): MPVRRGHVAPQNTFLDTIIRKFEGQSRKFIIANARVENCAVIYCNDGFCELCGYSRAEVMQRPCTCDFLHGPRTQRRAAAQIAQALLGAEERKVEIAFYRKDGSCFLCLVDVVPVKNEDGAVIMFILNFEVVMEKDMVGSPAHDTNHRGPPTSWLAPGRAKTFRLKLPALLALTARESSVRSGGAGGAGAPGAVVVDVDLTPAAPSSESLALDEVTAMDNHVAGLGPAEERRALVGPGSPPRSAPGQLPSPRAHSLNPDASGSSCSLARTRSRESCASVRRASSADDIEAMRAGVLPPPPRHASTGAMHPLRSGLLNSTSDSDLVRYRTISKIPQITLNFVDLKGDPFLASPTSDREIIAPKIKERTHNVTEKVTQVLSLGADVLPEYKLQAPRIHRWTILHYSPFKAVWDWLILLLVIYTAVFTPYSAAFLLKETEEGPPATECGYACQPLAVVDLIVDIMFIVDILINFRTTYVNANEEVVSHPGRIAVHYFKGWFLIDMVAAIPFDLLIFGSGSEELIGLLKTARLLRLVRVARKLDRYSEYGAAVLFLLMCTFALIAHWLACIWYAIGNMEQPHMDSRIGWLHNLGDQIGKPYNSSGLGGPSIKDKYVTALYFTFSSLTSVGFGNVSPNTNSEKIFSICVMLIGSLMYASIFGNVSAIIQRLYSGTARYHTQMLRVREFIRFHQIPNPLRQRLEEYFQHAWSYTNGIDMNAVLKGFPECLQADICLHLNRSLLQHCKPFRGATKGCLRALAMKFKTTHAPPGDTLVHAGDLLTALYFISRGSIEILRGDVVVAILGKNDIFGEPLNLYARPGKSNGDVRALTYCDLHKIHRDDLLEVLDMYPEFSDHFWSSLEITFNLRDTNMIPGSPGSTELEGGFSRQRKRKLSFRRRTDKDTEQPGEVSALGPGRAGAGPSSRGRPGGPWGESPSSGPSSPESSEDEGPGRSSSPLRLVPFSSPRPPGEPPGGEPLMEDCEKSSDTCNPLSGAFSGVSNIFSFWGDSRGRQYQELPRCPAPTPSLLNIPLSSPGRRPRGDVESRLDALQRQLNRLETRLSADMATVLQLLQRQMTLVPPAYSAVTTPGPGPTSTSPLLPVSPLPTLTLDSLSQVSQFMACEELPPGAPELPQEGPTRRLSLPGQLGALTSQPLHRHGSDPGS
Assay: cell-based
Settings: (-LOG10(IC50), µM)
Where a name gives a salt, the structure may show the parent alone.
Output spec: scalar in µM, unitless text.

The cases that follow already have their IC50 on record.
| compound | target.or.system | reading.unit | IC50 |
| --- | --- | --- | --- |
| O=C1Cc2ccccc2N1c1c(Cl)cccc1Cl | hERG (Homo sapiens, UniProt Q12809) | µM | 21.9 |
| O=C(OCCOCCO)c1ccccc1Nc1cccc(C(F)(F)F)c1 [Etofenamate] | hERG (Homo sapiens, UniProt Q12809) | µM | 13.4 |
| CC(C)C(=O)OCc1cccc(OC(=O)[C@@H]2N3C(=O)[C@@H](NC(=O)Cc4ccccc4)[C@H]3SC2(C)C)c1 | hERG (Homo sapiens, UniProt Q12809) | µM | 20.5 |
| CN1CCN(C2Cc3ccccc3Sc3ccc(Cl)cc32)CC1 (stereo not drawn) [Octoclothepine maleate] | hERG (Homo sapiens, UniProt Q12809) | µM | 0.849 |
| CC(C)Cc1ccc(C(C)C(=O)OCc2ccccn2)cc1 (stereo not drawn) | hERG (Homo sapiens, UniProt Q12809) | µM | 16.3 |
| O=C(c1ccccc1)c1cc(Cl)ccc1O | hERG (Homo sapiens, UniProt Q12809) | µM | 46.5 |
| N#Cc1ccc(CC(=O)c2cccc(C(F)(F)F)c2)cc1 | hERG (Homo sapiens, UniProt Q12809) | µM | 30.9 |
| O=[N+]([O-])c1cccc(S(=O)(=O)NCCNS(=O)(=O)c2cccc([N+](=O)[O-])c2)c1 | hERG (Homo sapiens, UniProt Q12809) | µM | 14.5 |

Would you kindly look at the next entry?
Reported IC50 of CC(C)(C)C(O)/C(=C\c1ccc(Cl)cc1Cl)n1cncn1 (stereo not drawn) : 61.6

* * *

Target: hERG (Homo sapiens)
Experiment: Tox21 qHTS FluxOR thallium flux assay in hERG-U2OS cells
Details: (-LOG10(IC50), µM), Supplementary File S2, Tox21 chemical library
Where a name gives a salt, the structure may show the parent alone.
parameter.measured: IC50 (µM)
Give the value, in units of µM, as a plain number.

| molecule | IC50 (µM) |
| --- | --- |
| CCNC(=O)N1CCN(CCCC(c2ccc(F)cc2)c2ccc(F)cc2)CC1 [Amperozide hydrochloride] | 0.0916 |

The reported value for OC(CN1CCC(Cc2ccc(F)cc2)CC1)c1ccc(Cl)cc1 (centres unmarked) in terms of IC50 is 0.0916

* * *

Biological target: UniProt Q12809
Experiment: cell-based
Details: (-LOG10(IC50), µM)
Structures can show the parent of a compound that is named as a salt.
Each entry below carries its reported IC50.
Mention the unit after the number when you answer.

Take a look at these entries with their results.
| compound | experimental.value |
| --- | --- |
| Cc1nc2n(c(=O)c1CCN1CCC(C(=O)c3ccc(F)cc3)CC1)CCS2 [Setoperone] | 9.89 µM |
| CN(C)CCN(Cc1ccc(Cl)cc1)c1ccccn1 [Chloropyramine hydrochloride] | 2.39 µM |
| CCOP(=S)(OCC)SCn1c(=O)oc2cc(Cl)ccc21 [Phosalone] | 23.5 µM |

Notebook: CCCN(CCc1cccs1)[C@H]1CCc2c(O)cccc2C1 [Rotigotine] , IC50 read as 3.01 µM

Please fill in: IC50 reported for CCCCCCCCCCCCCC[n+]1ccccc1 [Tetradecylpyridinium bromide] = 5.49 µM

The compound listed as `Oc1ccc(C(=C(Cl)Cl)c2ccc(O)cc2)cc1` has a reported IC50 of 47 µM

Entry under test: CCCCCCCCCCn1cc[n+](C)c1 [1-Decyl-3-methylimidazolium bromide] . Its IC50 was 15 µM

Query COc1ccc(-c2cc(C(F)F)nn2-c2ccc(S(N)(=O)=O)cc2)cc1F [Deracoxib] yields IC50 of 23.9 µM

Recorded IC50 (compound CN(C)CCN(Cc1ccccc1)c1ccccn1 [Tripelennamine citrate] ): 12.7 µM

Just so you know, measured IC50 for CC(C)N(C(=O)SCC(Cl)=C(Cl)Cl)C(C)C [Tri-allate] came out at 20 µM

get_value(item= COc1ccc2c(c1OC)C(=O)O[C@H]2[C@@H]1c2cc3c(cc2CCN1C)OCO3 [(1S,9R)-beta-Hydrastine] , readout=IC50) returns 19 µM

* * *

Target: hERG (Homo sapiens, UniProt Q12809)
Assay: cell-based
Conditions: (-LOG10(IC50), µM)
Structures can show the parent of a compound that is named as a salt.
Rule: IC50 below 20 µM gives 1 (yes), anything at or above gives 0 (no).

For orientation, consider the following solved cases.
| compound | label |
| --- | --- |
| N#CC(C#N)=NNc1cccc(Cl)c1 [Carbonyl cyanide chlorophenylhydrazone] | 0 (no) |
| O=C(NC1CCN(CCc2c[nH]c3ccccc23)CC1)c1ccccc1 [Indoramin hydrochloride] | 1 (yes) |
| C[C@]12CC[C@@H]3c4ccc(O)cc4CC[C@H]3[C@@H]1CC[C@@H]2OC(=O)CCC1CCCC1 [Estradiol cypionate] | 0 (no) |
| CCCCCOC(=O)COc1cc(N2C(=O)C3=C(CCCC3)C2=O)c(F)cc1Cl | 1 (yes) |
| CCCCCCCCCCCCCCCC[N+](C)(C)C [Hexadecyl trimethyl ammonium chloride] | 1 (yes) |

Is the reported IC50 for CCCCCCCC(=O)Oc1c(Br)cc(C#N)cc1Br [Bromoxynil octanoate] strictly below 20 µM?
0 (no)

Regarding `C[C@H]1C[C@H]2[C@@H]3CCC4=CC(=O)C=C[C@]4(C)[C@@]3(Cl)[C@@H](O)C[C@]2(C)[C@@]1(O)C(=O)CO` , kindly confirm whether its IC50 is beneath 20 µM.
0 (no)

* * *

Molecular target: hERG (Homo sapiens)
Experiment: cell-based
Settings: (-LOG10(IC50), µM)
Structures can show the parent of a compound that is named as a salt.
parameter.measured: IC50 (µM)
# number only, unit µM dropped from output

| compound | IC50, µM |
| --- | --- |
| Oc1ccc(Cl)cc1Cc1cc(Cl)ccc1O | 27 |

Record `Brc1ccccc1-c1ccccc1` , field IC50: 35.5

The compound listed as CCCCc1cc2ccccc2c(OCCN(C)C)n1 [Dimethisoquin hydrochloride] has a reported IC50 of 3.65

Lab note: measured IC50 of C=C(Cl)CSC(=S)N(CC)CC [Sulfallate] was 51.5

// sample `O=[N+]([O-])C1(Br)COCOC1` , its IC50 was 51.9

IC50 for `COc1ccc2[nH]cc(CCN(C(C)C)C(C)C)c2c1` is 25.2

Record summary for CCN1CCCC1CNC(=O)C(O)(c1ccccc1)c1ccccc1 (centres unmarked) [Epicainide] : reported IC50 = 19.7

Entry under test: `CC(C)(C)CC(C)(C)c1ccc(O)c(-n2nc3ccccc3n2)c1` . Its IC50 was 14.5

* * *

Target: hERG (Homo sapiens, UniProt Q12809)
Assay: cell-based
Conditions: (-LOG10(IC50), µM)
parameter.measured: IC50 (µM)
Return type: number; implicit unit µM.

| molecule | experimental.value |
| --- | --- |
| CN(C)[C@@H](CCOc1cccc2ccccc12)c1ccccc1 | 7.56 |
| O=CC=C(c1ccccc1)c1ccccc1 | 42.4 |
| Oc1ccc2[nH]cc(CCCCN3CC=C(c4ccccc4)CC3)c2c1 | 3.38 |
| CCOC(=O)O[C@H](C)OC(=O)c1ccc2c(c1)cc(C(=O)NC1CCN(C(C)C)CC1)n2Cc1cc(-c2ccc(Cl)s2)on1 | 8.14 |
| Cl[C@H]1[C@H](Cl)[C@@H](Cl)[C@@H](Cl)[C@H](Cl)[C@H]1Cl | 45 |

Field IC50 (entry N#CC(CCc1ccc(Cl)cc1)(Cn1cncn1)c1ccccc1 (stereo not shown) ) reads 18.1

Notebook: `COc1ccccc1N1CCN(CCCCNC(=O)c2ccc(-c3ccc(C(C)=O)cc3)cc2)CC1` , IC50 read as 3.01

* * *

Molecular target: hERG (Homo sapiens)
Assay: cell-based
Details: (-LOG10(IC50), µM)
parameter.measured: IC50 (µM)
// units = µM; emit number, no label

Field: example entries. Status: answers known.
| compound | parameter.measured | reading.unit | experimental.value |
| --- | --- | --- | --- |
| CC(C)CC(C)N(c1ccccc1)c1ccc(N)cc1 (stereo not shown) | IC50 | µM | 27.5 |
| CC1COC(Cn2cncn2)(c2ccc(Oc3ccc(Cl)cc3)cc2Cl)O1 (stereo not shown) | IC50 | µM | 22.7 |

# context switch: different compound, same IC50
Sure, the documented IC50 for `CCCCCNC(=N)N/N=C/c1c[nH]c2ccc(OC)cc12` is 9.16

meta.source: paper PMC8869358
